target: T1, cynomolgus IL4Rα/Fc HIS6 (HEK expressed) (cynomolgus monkey); test: HTRF receptor-ligand assay, purified scFv against biotinylated cynomolgus IL4
T1 construct: also called Cyno IL4R; cynomolgus IL-4Rα HIS Fc (in house HEK-EBNA derived); not shown: HIS6 tag
T1 sequence (chain, as listed by the source): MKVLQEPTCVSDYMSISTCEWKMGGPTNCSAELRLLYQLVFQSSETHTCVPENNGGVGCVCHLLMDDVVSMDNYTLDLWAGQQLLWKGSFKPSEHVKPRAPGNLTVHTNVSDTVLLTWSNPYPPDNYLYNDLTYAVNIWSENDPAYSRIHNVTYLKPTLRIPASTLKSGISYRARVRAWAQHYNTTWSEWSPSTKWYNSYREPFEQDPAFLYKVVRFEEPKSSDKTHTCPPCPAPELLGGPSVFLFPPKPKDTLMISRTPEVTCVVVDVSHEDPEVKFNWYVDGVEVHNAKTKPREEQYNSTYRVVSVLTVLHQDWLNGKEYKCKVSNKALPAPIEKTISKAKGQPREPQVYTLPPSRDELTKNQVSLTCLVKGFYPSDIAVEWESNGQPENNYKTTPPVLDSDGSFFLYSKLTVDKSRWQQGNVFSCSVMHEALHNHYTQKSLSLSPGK
pKi: −log10 of the molar value.
Each entry below carries its recorded pKi.
ASSAY READOUT: pKi

1) Antibody 18 scFv (scFv, V domains shown, tested as purified scFv) VH: QVQLVQSGAEVKKPGASVKVSCKASGYAFTSYYMHWARQAPGQGLEWMGIINPSGGSTSYAQKFQGRVTMTRDTSTSTVYMELSSLRSEDTAVYYCARGKWWWQHWGKGTLVTVSS VL: QSVLTQPPSVSAAPGQKVTISCSGGSSNIGNSYVSWYQQLPGTAPKLLIYDNNKRPSGIPDRFSGSKSGTSATLAITGLQTGDEADYYCGTWDTSTTPMPVFGTGTKLTVL; 7.25
2) Antibody 8 scFv (scFv, V domains shown, tested as purified scFv) VH: QVQLVQSGAEVKKPGASVKVSCKASGYAFTSYYMHWARQAPGQGLEWMGIINPSGGSTSYAQKFQGRVTMTRDTSTSTVYMELSSLRSEDTAVYYCARGKWWWQYWGKGTLVTVSS VL: QSVLTQPPSVSAAPGQKVTISCSGGSSNIGNSYVSWYQQLPGTAPKLLIYDNNKRPSGIPDRFSGSKSGTSATLAITGLQTGDEADYYCGTWDTSTTYHPIFGTGTKLTVL; 8.03
3) Antibody 23 scFv (scFv, V domains shown, tested as purified scFv) VH: QVQLVQSGAEVRKPGASVKVSCKASGYAFTSYYMHWARQAPGQGLEWMGIINPSGGSTSYAQKFQGRVTMTRDTSTSTVYMELSSLRSEDTAVYYCARGKYWMYDWGKGTLVTVSS VL: QSVLTQPPSVSAAPGQKVTISCSGGSSNIGNNYVSWYQQLPGTAPKLLIYDNNKRPPGIPDRFSGSKSGTSATLAITGLQTGDEADYYCGTWDTSTVWEWPFGTGTKLTVL; 8.32
